- system.tested: VcMbnBC
- assay: ITC measurement of VcMbnA and variants binding affinity to VcMbnBC
- Set-up: species or system Vibrio caribbenthicus BAA-2122
- condition.context: ITC, 16 °C; 2 mM peptide, 20 injections of 2.5 μL into 190 μL VcMbnBC 1 mg/mL in 25 mM HEPES pH 8.0, 100 mM NaCl; one-site binding; read-out: Kd, VcMbnA or variant/VcMbnBC
Ends that are not written are not given here.
value.kind: Kd (µM)

INSERT INTO measurements (seq, system_tested, quantitative_result) VALUES
  ('MKNDKKVVVKVKDKEM [LP]', 'VcMbnBC', 63.8);
